assay: Calcium liability (tolerance test in mice); conditions: mouse, in vivo, sc, daily s.c. for 4 consecutive days, dose without weight loss / with zero weight gain, read-out: HTD sc, mouse (highest tolerated subcutaneous dose)
Measured Quantity: MTD (mg/kg)
Please state the figure in mg/kg; there is no need to write the unit.

Consider the reported MTD for these compounds:
Compound	Measured Quantity	Reported Value
C[C@H](CNC(=O)CC(C)(O)C(F)(F)F)[C@H]1CC[C@H]2/C(=C/C=C3C[C@@H](O)C[C@H](O)C3)CCC[C@]12C (mixture of isomers) [compound B]	MTD	0.045
C=C1/C(=C\C=C2/CCC[C@]3(C)[C@@H]([C@H](C)CNC(=O)CC(C)(O)C(F)(F)F)CC[C@@H]23)C[C@@H](O)C[C@@H]1O (mixture of isomers) [D]	MTD	0.01

Shifting focus to the compound that follows.
IN: Quick one: MTD of C[C@@H](CNC(=O)CC(C)(O)C(F)(F)F)[C@H]1CC[C@H]2/C(=C/C=C3C[C@@H](O)C[C@H](O)C3)CCC[C@]12C (mixture of isomers) [compound E] ?
OUT: 0.001

Reference source for all entries: patent US6043385A
